Assay: Reconstitution time of lyophilized compositions (Tables E, 28, 35)
Assay type: physicochemical
Details: lyophilized 16.15% P407 with salt at 533.25 mM, reconstituted with Diluent ([…] DMSO in water)
Experimental: Diluent 1, 0.85 mL+lyophilized cake. […] Gentle tapping on the exterior of the vessel to help the cake dissolve in the Diluent may be required while keeping it in fridge (or ice bath). To avoid degradation of the composition, minimize stirring and/or vortexing. […] Building on the results of Examples 14 to 16, further lyophilized compositions were manufactured and had their reconstitution times evaluated. […]
The following compounds are shown together with reported Reconstitution time (minutes) water + DMSO values.
measurementLabel: Reconstitution time (minutes) water + DMSO

>>> df
                                   compound  reportedvalue
0  CCCC(CCC)C(=O)O [Sodium Valproate, Sodium 2-propylpentanoate]         25 min
1   [Cl-].[Cl-].[Mg+2] [Magnesium Chloride]        180 min
2             [Cl-].[Na+] [Sodium Chloride]        150 min
3  C#CCC(CCCCCC)C(=O)[O-].[Na+] (stereo not drawn) [Sodium 2-(prop-2-yn-l-yl) Octanoate]          4 min
4           [Cl-].[K+] [Potassium Chloride]        168 min
